# Tested Target: Falcipain 2 (Plasmodium falciparum) (UniProt Q9N6S8)
# Sequence (whole entry): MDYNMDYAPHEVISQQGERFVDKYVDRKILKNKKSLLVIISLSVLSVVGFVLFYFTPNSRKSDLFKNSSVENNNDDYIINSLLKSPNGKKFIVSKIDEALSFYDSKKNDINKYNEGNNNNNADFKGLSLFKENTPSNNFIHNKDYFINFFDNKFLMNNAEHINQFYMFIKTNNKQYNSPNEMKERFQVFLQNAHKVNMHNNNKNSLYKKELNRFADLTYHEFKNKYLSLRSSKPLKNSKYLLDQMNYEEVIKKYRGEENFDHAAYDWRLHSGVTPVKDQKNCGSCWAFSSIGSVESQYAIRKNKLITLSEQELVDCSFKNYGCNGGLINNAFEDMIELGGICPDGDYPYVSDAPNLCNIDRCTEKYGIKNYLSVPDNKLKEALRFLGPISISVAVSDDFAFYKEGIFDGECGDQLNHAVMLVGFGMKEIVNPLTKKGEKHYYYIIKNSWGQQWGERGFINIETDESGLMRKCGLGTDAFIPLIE
# Test Name: Ratio of Kinact to Ki for Plasmodium falciparum recombinant falcipain-2 after 10 min
Readout Type: Ratio

1. COC(=O)/C=C/CNC(=O)CN1C(=O)[C@@H](COC(=O)NC23CC4CC(CC(C4)C2)C3)N=C(c2ccccc2)c2ccccc21 1.16e+06
2. COC(=O)/C=C/CNC(=O)CN1C(=O)[C@@H](COC(=O)Nc2ccc(Cl)cc2C(F)(F)F)N=C(c2ccccc2)c2ccccc21 3.57e+06
3. COC(=O)/C=C/CNC(=O)CN1C(=O)[C@@H](COC(=O)Nc2ccc(Cl)cc2C(F)(F)F)N=C(c2ccc(Br)cc2)c2ccccc21 24500
4. COC(=O)/C=C/CNC(=O)CN1C(=O)[C@@H](COC(=O)Nc2ccc(Cl)cc2C(F)(F)F)N=C(c2ccccc2)c2cc(Cl)ccc21 76000
5. CC(C)C[C@H](NC(=O)[C@H]1O[C@@H]1C(=O)O)C(=O)NCCCCN=C(N)N 1.59e+06
6. COC(=O)/C=C/[C@H](CC(C)C)NC(=O)CN1C(=O)[C@@H](COC(=O)Nc2ccc(Cl)cc2C(F)(F)F)N=C(c2ccccc2)c2ccccc21 18000
